Biological target: Amine oxidase [flavin-containing] A (Homo sapiens, UniProt P21397); also: assay procedure not described here
Sequence (P21397 whole entry): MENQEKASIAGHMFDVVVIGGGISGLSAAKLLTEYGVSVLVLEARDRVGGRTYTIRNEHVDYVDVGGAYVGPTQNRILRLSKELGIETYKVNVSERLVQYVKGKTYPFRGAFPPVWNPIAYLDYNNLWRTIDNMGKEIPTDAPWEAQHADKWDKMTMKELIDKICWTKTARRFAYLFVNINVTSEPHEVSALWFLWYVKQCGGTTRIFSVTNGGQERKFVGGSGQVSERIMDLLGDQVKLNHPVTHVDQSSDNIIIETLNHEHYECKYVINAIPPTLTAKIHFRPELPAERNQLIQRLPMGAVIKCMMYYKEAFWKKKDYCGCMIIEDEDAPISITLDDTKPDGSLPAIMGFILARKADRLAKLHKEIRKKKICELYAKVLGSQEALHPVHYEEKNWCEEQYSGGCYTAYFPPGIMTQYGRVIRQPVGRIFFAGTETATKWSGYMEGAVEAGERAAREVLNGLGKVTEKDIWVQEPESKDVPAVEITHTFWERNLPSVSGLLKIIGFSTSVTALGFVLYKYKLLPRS
Type: functional
Reported AC50 values for the following compounds.
readout: AC50

compound	tested_on	result
CCC(C)C1(CC)C(=O)NC(=O)NC1=O (stereo not drawn)	Amine oxidase [flavin-containing] A (Homo sapiens, UniProt P21397)	> 30 µM
CC(=O)SC[C@@H](C)C(=O)N1CCC[C@H]1C(=O)N[C@@H](Cc1ccccc1)C(=O)O	Amine oxidase [flavin-containing] A (Homo sapiens, UniProt P21397)	> 30 µM
CCN(CC)C(=O)Nc1ccc(OCC(O)CNC(C)(C)C)c(C(C)=O)c1 (stereo not drawn)	Amine oxidase [flavin-containing] A (Homo sapiens, UniProt P21397)	> 30 µM
Cc1cnc(C(=O)NCCc2ccc(S(=O)(=O)NC(=O)NC3CCCCC3)cc2)cn1 [GLIPIZIDE]	Amine oxidase [flavin-containing] A (Homo sapiens, UniProt P21397)	> 10 µM
O=C1CCc2cc(OCCCCc3nnnn3C3CCCCC3)ccc2N1	Amine oxidase [flavin-containing] A (Homo sapiens, UniProt P21397)	> 30 µM
CCN1CCCC1CNC(=O)c1cc(S(=O)(=O)CC)c(N)cc1OC (stereo not drawn) [AMISULPRIDE]	Amine oxidase [flavin-containing] A (Homo sapiens, UniProt P21397)	> 30 µM
CC1=C(C)C(=O)C(C(CCCCCC(=O)O)c2ccccc2)=C(C)C1=O (stereo not drawn)	Amine oxidase [flavin-containing] A (Homo sapiens, UniProt P21397)	> 30 µM
C#C[C@]1(O)CC[C@H]2[C@@H]3CCC4=CC(=O)CC[C@@H]4[C@H]3C(=C)C[C@@]21CC	Amine oxidase [flavin-containing] A (Homo sapiens, UniProt P21397)	> 30 µM
Nc1ccc(S(=O)(=O)Nc2nccs2)cc1	Amine oxidase [flavin-containing] A (Homo sapiens, UniProt P21397)	> 10 µM
CC(=O)N[C@@H](CS)C(=O)O	Amine oxidase [flavin-containing] A (Homo sapiens, UniProt P21397)	> 30 µM
C[C@H](CCC(=O)O)[C@H]1CC[C@H]2[C@@H]3[C@@H](O)C[C@@H]4C[C@H](O)CC[C@]4(C)[C@H]3CC[C@]12C	Amine oxidase [flavin-containing] A (Homo sapiens, UniProt P21397)	> 30 µM
CN(C)CCC[C@@]1(c2ccc(F)cc2)OCc2cc(C#N)ccc21	Amine oxidase [flavin-containing] A (Homo sapiens, UniProt P21397)	> 30 µM
C=CC[C@@H]1/C=C(\C)C[C@H](C)C[C@H](OC)[C@H]2O[C@@](O)(C(=O)C(=O)N3CCCC[C@H]3C(=O)O[C@H](/C(C)=C/[C@@H]3CC[C@@H](O)[C@H](OC)C3)[C@H](C)[C@@H](O)CC1=O)[C@H](C)C[C@@H]2OC [TACROLIMUS ANHYDROUS]	Amine oxidase [flavin-containing] A (Homo sapiens, UniProt P21397)	> 30 µM
CCC(COC(=O)c1cc(OC)c(OC)c(OC)c1)(c1ccccc1)N(C)C (stereo not drawn)	Amine oxidase [flavin-containing] A (Homo sapiens, UniProt P21397)	> 30 µM
CN(C)CC[C@@H](c1ccc(Cl)cc1)c1ccccn1	Amine oxidase [flavin-containing] A (Homo sapiens, UniProt P21397)	> 30 µM
CC(N)C(O)c1ccccc1 (stereo not drawn)	Amine oxidase [flavin-containing] A (Homo sapiens, UniProt P21397)	> 10 µM
CN(CC1(C)CCCO1)S(=O)(=O)c1ccc(Cl)c(S(N)(=O)=O)c1 (stereo not drawn) [MEFRUSIDE]	Amine oxidase [flavin-containing] A (Homo sapiens, UniProt P21397)	> 30 µM
CN1CCC(=C2c3ccccc3CCc3cccnc32)CC1	Amine oxidase [flavin-containing] A (Homo sapiens, UniProt P21397)	> 10 µM
